Reference source: PubChem BioAssay AID588354

Target: Nuclear receptor coactivator 1 (Homo sapiens)
Assay: NCOA1 GAL4-fusion reporter inhibition – cell-based, luminescence, primary screen (AID 588354);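 note: 0% = DMSO treated cells and 100% = gossypol at 36 µM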
Settings: HEK293 GAL4-SRC1 luciferase reporter, at 3.6 µM
The whole screen tested about 360,000 compounds, of which about 430 (0.12%) were called active.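 Rule for the calls: active = inhibition above the campaign mean plus 3 SD, with each screening campaign given its own cutoff (cut at about 60% in these data); inactive = the rest.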 This excerpt belongs to a sample that is enriched for actives.
Field 'call' accepts 1.0 for active, 0.0 for inactive

Look over these answered cases.
COC1C(O)C(C)OC(OC2CCC3(C=O)C(CCC4C3CCC3(C)C(C5=CC(=O)OC5)CCC43O)C2)C1O (stereo unspecified) = 1.0
CCC(C)(O)C(=O)OC1C(=O)OC2CC3C(C)=CC(=O)C(O)C3(C)C3C4(O)OCC23C1C(C)C4O (stereo unspecified) = 1.0
CNC(=O)N(C)c1nnc(C(C)(C)C)s1 = 0.0
CCOc1ccc(-c2cc(C)[n+](CCN(CC)CC)c(-c3ccc(OCC)cc3)c2)cc1 = 1.0
Cc1ccccc1NC(=O)COC(=O)c1cc(C)n(C2CC2)c1C = 0.0

Would you mind telling me which call this test gave CC1CCC(N(C)C2CCN(C)CC2)CC1 (stereo unspecified) ? 0.0
